Please respond with reported MIC for every item in the list.
# Tested on: Salmonella typhimurium
# test-name: Antimicrobial activity against Salmonella enterica serovar Typhimurium CHS14 acrAB::Kan with GyrA D87G mutation
# Type: functional, Salmonella enterica subsp. enterica serovar Typhimurium

# example entries with known answers
compound="CN(C)[C@@H]1C(O)=C(C(N)=O)C(=O)[C@@]2(O)C(O)=C3C(=O)c4c(O)cccc4[C@@](C)(O)[C@H]3C[C@@H]12 [TETRACYCLINE]" parameter_measured=MIC assay_result="> 32 µg/mL"
compound="CO/N=C(\\C(=O)N[C@@H]1C(=O)N2C(C(=O)O)=C(CSC(=O)c3ccco3)CS[C@H]12)c1csc(N)n1 [CEFTIOFUR]" parameter_measured=MIC assay_result="< 0.12 µg/mL"
compound="C[C@H]1COc2c(N3CCN(C)CC3)c(F)cc3c(=O)c(C(=O)O)cn1c23.C[C@H]1COc2c(N3CCN(C)CC3)c(F)cc3c(=O)c(C(=O)O)cn1c23.O [LEVOFLOXACIN]" parameter_measured=MIC assay_result="0.03 µg/mL"
compound="NC[C@H]1O[C@H](O[C@H]2[C@H](O)[C@@H](O[C@H]3O[C@H](CO)[C@@H](O)[C@H](N)[C@H]3O)[C@H](N)C[C@@H]2N)[C@H](O)[C@@H](O)[C@@H]1O [KANAMYCIN]" parameter_measured=MIC assay_result="> 64 µg/mL"
compound="CCn1cc(C(=O)O)c(=O)c2cc(F)c(N3CCNCC3)nc21 [ENOXACIN]" parameter_measured=MIC assay_result="0.03 µg/mL"

Now for another entry.
For record CCn1cc(C(=O)O)c(=O)c2ccc(C)nc21 [NALIDIXIC ACID] the listed MIC is 8 µg/mL

###

Please respond with reported MIC for every item in the list.
# Tested on: Salmonella typhimurium
# test-name: Antimicrobial activity against Salmonella enterica serovar Typhimurium CHS38 tolC::Kan with GyrA D87G mutation
# Assay type: functional, Salmonella enterica subsp. enterica serovar Typhimurium

molecule=CN1C[C@@H]2C[C@H]1CN2c1cc2c(cc1F)c(=O)c(C(=O)O)cn2C1CC1 assay_result="< 0.015 µg/mL"
molecule=CN(C)[C@@H]1C(O)=C(C(N)=O)C(=O)[C@@]2(O)C(O)=C3C(=O)c4c(O)cccc4[C@@](C)(O)[C@H]3C[C@@H]12 assay_result="16 µg/mL"

// each listed molecule needs a value for MIC
1. C[C@@H]1CN(c2c(F)c(F)c3c(=O)c(C(=O)O)cn(C4CC4)c3c2F)C[C@H](C)N1
2. CCn1cc(C(=O)O)c(=O)c2cc(F)c(N3CCNCC3)nc21
3. CO/N=C(\C(=O)N[C@@H]1C(=O)N2C(C(=O)O)=C(CSC(=O)c3ccco3)CS[C@H]12)c1csc(N)n1
4. CN1CCN(c2cc3c(cc2F)c(=O)c(C(=O)O)cn3-c2ccc(F)cc2)CC1
5. COc1c(N2CCNC(C)C2)c(F)cc2c(=O)c(C(=O)O)cn(C3CC3)c12 (configuration not stated)

< 0.015 µg/mL
< 0.015 µg/mL
0.12 µg/mL
< 0.015 µg/mL
< 0.015 µg/mL

###

Please respond with reported MIC for every item in the list.
# Tested on: Salmonella typhimurium
# test-name: Antimicrobial activity against Salmonella enterica serovar Typhimurium CHS18 tolC::Kan with GyrA S38F mutation
# Type: functional, Salmonella enterica subsp. enterica serovar Typhimurium

molecule="CN1C[C@@H]2C[C@H]1CN2c1cc2c(cc1F)c(=O)c(C(=O)O)cn2C1CC1 [DANOFLOXACIN]" assay_result="0.06 µg/mL"
molecule="CC(=O)OCC1=C(C(=O)O)N2C(=O)[C@@H](NC(=O)Cc3cccs3)[C@H]2SC1 [CEPHALOTHIN]" assay_result="2 µg/mL"
molecule="C[C@H]1COc2c(N3CCN(C)CC3)c(F)cc3c(=O)c(C(=O)O)cn1c23.C[C@H]1COc2c(N3CCN(C)CC3)c(F)cc3c(=O)c(C(=O)O)cn1c23.O [LEVOFLOXACIN]" assay_result="0.03 µg/mL"
molecule="COc1c(N2CCNC(C)C2)c(F)cc2c(=O)c(C(=O)O)cn(C3CC3)c12 (stereo not drawn) [GATIFLOXACIN]" assay_result="0.03 µg/mL"
molecule="CN(C)[C@@H]1C(O)=C(C(N)=O)C(=O)[C@@]2(O)C(O)=C3C(=O)c4c(O)cccc4[C@@](C)(O)[C@H]3C[C@@H]12 [TETRACYCLINE]" assay_result="4 µg/mL"

// each listed molecule needs a value for MIC
1. NC[C@H]1O[C@H](O[C@H]2[C@H](O)[C@@H](O[C@H]3O[C@H](CO)[C@@H](O)[C@H](N)[C@H]3O)[C@H](N)C[C@@H]2N)[C@H](O)[C@@H](O)[C@@H]1O [KANAMYCIN]
2. C[C@@H]1CN(c2c(F)c(F)c3c(=O)c(C(=O)O)cn(C4CC4)c3c2F)C[C@H](C)N1 [ORBIFLOXACIN]
3. O=C(O)c1cn(-c2ccc(F)cc2)c2cc(N3CCNCC3)c(F)cc2c1=O [SARAFLOXACIN]

1: > 64 µg/mL; 2: 0.06 µg/mL; 3: 0.03 µg/mL
